Exercise: for every item that follows, state its recorded remaining at 24 h, 1 mg/ml.
# RUN_DESCRIPTION: Chemical stability DMEM cell culture medium at pH 7.3 at 1 mg/ml at 37 degC assessed as ratio of Asn-containing cyclic peptides after 24 hrs by HPLC method
# Format: physicochemical
# CONDITION_NOTES: read-out: Stability
Where a SMILES comes first, the peptide text is derived from it. Bridges are numbered along the chain shown (N, C = ends).
Answers are plain numbers, in %.

Below, each entry is followed by its recorded remaining at 24 h, 1 mg/ml result.
MOLECULE: CC(=O)N[C@H]1CSSC[C@@H](C(N)=O)NC(=O)[C@H](CCCNC(=N)N)NC(=O)CNC(=O)[C@H](CC(N)=O)NC1=O (Ac-CNGRC-NH2; disulfide 1-5)
READOUT_UNIT: %
remaining at 24 h, 1 mg/ml: 46
--
MOLECULE: N=C(N)NCCC[C@@H]1NC(=O)CNC(=O)[C@H](CC(N)=O)NC(=O)CCSC[C@@H](C(N)=O)NC1=O
READOUT_UNIT: %
remaining at 24 h, 1 mg/ml: 0
--
MOLECULE: N=C(N)NCCC[C@@H]1NC(=O)CNC(=O)[C@H](CC(N)=O)NC(=O)CSCCC(C(N)=O)NC1=O (single isomer, unassigned)
READOUT_UNIT: %
remaining at 24 h, 1 mg/ml: 0
--
MOLECULE: N=C(N)NCCC[C@@H]1NC(=O)CNC(=O)[C@H](CC(N)=O)NC(=O)[C@H](CCCCN)NC(=O)CSC[C@@H](C(N)=O)NC1=O ({CH2CO}-KNGRC-NH2; thioether N-5)
READOUT_UNIT: %
remaining at 24 h, 1 mg/ml: 0

Please give remaining at 24 h, 1 mg/ml, item by item, for the list that follows.
1. N=C(N)NCCC[C@@H]1NC(=O)CNC(=O)[C@H](CC(N)=O)NC(=O)[C@H](CCCCN)NC(=O)CC[C@@H](C(N)=O)NC1=O (KNGRE-NH2; lactam N-5)
2. N=C(N)NCCC[C@@H]1NC(=O)CNC(=O)[C@H](CC(N)=O)NC(=O)CSC[C@@H](C(N)=O)NC1=O ({CH2CO}-NGRC-NH2; thioether N-4)

[92, 0]

###

Assignment: determine reported remaining at 48 h, 1 mg/ml for the given molecules.
# RUN_DESCRIPTION: Chemical stability DMEM cell culture medium at pH 7.3 at 1 mg/ml at 37 degC assessed as ratio of Asn-containing cyclic peptides after 48 hrs by HPLC method
# Assay type: physicochemical
# CONDITION_NOTES: read-out: Stability
Where a SMILES comes first, the peptide text is derived from it. Bridges are numbered along the chain shown (N, C = ends).
One number for each entry, in %.

Can you give me remaining at 48 h, 1 mg/ml for all of these, one by one?
1. N=C(N)NCCC[C@@H]1NC(=O)CNC(=O)[C@H](CC(N)=O)NC(=O)[C@H](CCCCN)NC(=O)CC[C@@H](C(N)=O)NC1=O (KNGRE-NH2; lactam N-5)
2. CC(=O)N[C@H]1CSSC[C@@H](C(N)=O)NC(=O)[C@H](CCCNC(=N)N)NC(=O)CNC(=O)[C@H](CC(N)=O)NC1=O (Ac-CNGRC-NH2; disulfide 1-5)

1. 54
2. 0
